protocol-text: A549 lung cancer cell viability effects, profiling panel, resazurin fluorescence, 24 h, PK04 Diversity Set (AID 1171); further: test concentration not given here
measurement-setup: higher = more signal, called active from +8 up or from −8 down
Values of z-score greater than or equal to -0.2 map to t; values below map to f.

# compound, classification
data = [
    ("C[C@H](ON=C1[C@H]2CCn3c(=O)n(-c4ccccc4)c(=O)n3[C@H]2[C@H](O)[C@@H]2O[C@H]12)c1cn([C@H](CO)Cc2ccccc2)nn1", "t"),
    ("COc1cccc([C@@H]2Oc3ccc(OC)cc3C(=O)[C@H]2O)c1", "f"),
    ("C=CC[C@@H]1C=C[C@H](ON=C(C)CCC(=O)OC[C@H]2O[C@H](c3ccccc3)C=C[C@@H]2Oc2ccc(OC)cc2)[C@@H](CO)O1", "t"),
    ("C=CC[C@@H]1C=C[C@H](ON=C2[C@H]3CCn4c(=O)n(-c5ccccc5)c(=O)n4[C@H]3[C@H](O)[C@@H]3O[C@H]23)[C@@H](CO)O1", "f"),
    ("O=C1C[C@@H](O)[C@@H](O)[C@@H]2[C@@H]3C(=O)N(C[C@@H]4CCCO4)C(=O)[C@@H]3CC[C@@H]12", "f"),
    ("COc1ccc(O[C@H]2C=C[C@@H](c3ccccc3)O[C@@H]2COC(=O)CCC(C)=NO[C@@H]2O[C@H](COC(C)=O)[C@@H](OC(C)=O)[C@H](OC(C)=O)[C@H]2OC(C)=O)cc1", "t"),
    ("C#CCCCON=C1[C@H]2CCn3c(=O)n(-c4ccccc4)c(=O)n3[C@H]2[C@H](O)[C@@H]2O[C@H]12", "f"),
    ("CC(C)(C)N1C(=O)[C@H]2[C@H]3[C@H](O)[C@H](O)CC(=O)[C@@H]3CC[C@H]2C1=O", "t"),
    ("CCOC(=O)[C@H](Cc1ccccc1)NC(=O)CCC1CC(OC(=O)NCCc2ccc(F)cc2)CC2(CCCC(COC(=O)NCC3CCCCC3)O2)O1 (stereo not given in full)", "t"),
    ("CC(C)=CCCC(C)=CCON=C1C[C@@H](O)[C@@H](O)[C@@H]2[C@@H]3C(=O)N(C4CCCCC4)C(=O)[C@@H]3CC[C@@H]12", "t"),
    ("C[C@@H]1NC(=O)[C@@H](C)COC(=O)[C@H](C)NC(=O)[C@@H](C)COC1=O", "t"),
    ("CC=CC1=C(CO)C(=O)[C@@H]2O[C@@H]2C1=O", "f"),
    ("CC(=O)Nc1ccc([C@@H]2N[C@H](C(=O)O)CC[C@H]2C)cc1", "f"),
    ("CCOC(=O)CCN1C(=O)[C@H]2[C@H]3[C@H](O)[C@H](O)CC(=NOCc4ccccc4)[C@H]3CC[C@H]2C1=O", "f"),
    ("O=C1CCCC=C1C(CCc1ccccc1)OC(=O)c1ccc(Br)cc1 (stereo not given)", "f"),
]

###

In this section, each of the compounds is paired with its reported composite z-score.
protocol-text: small-molecule microarray binders of probe aCHRDL2, primary screen, biochemical, biotinylated probe, 635/667 nm fluorescence (AID 1100)
measurement-setup: higher = more signal

# compound, composite z-score
data = [
    ("CCOC(=O)[C@H](Cc1ccccc1)NC(=O)CCC1CC(OC(=O)NCc2cccc3ccccc23)CC2(CCCC(COC(=O)NCc3ccccc3)O2)O1 (some centres undefined)", -0.285),
    ("CC(=O)OC[C@H]1O[C@@H](ON=C(C)CCN2CCCc3nc(C)c(C)cc32)[C@H](OC(C)=O)[C@@H](OC(C)=O)[C@@H]1OC(C)=O", -0.638),
    ("O=C1[C@H]2[C@H]3[C@H](O)[C@H](O)CC(=NOCc4ccccc4)[C@@H]3CC[C@H]2C(=O)N1c1ccc(F)cc1F", -0.554),
    ("CSCC[C@@H]1NC(=O)CC=C[C@@H](C)COC(=O)[C@@H](C)COC1=O", -0.816),
]

###

protocol-text: Plasmodium falciparum growth inhibition, primary screen, strain 3D7, DAPI fluorescence, 100 nL (AID 1184);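 further: parasites grown inside human red blood cells in medium with human serum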
measurement-setup: P. falciparum 3D7 growth, 3 d, higher = more signal
Values of z-score greater than or equal to 0.5 map to Fulfilled; values below map to Not fulfilled.

# compound, classification
records = [
    ("CO[C@H]1COC(=O)[C@@H]2CCCN2C(=O)CC=C[C@@H](C)[C@H](OC)COC(=O)[C@@H](OCc2ccccc2)C=C[C@@H]1C", "Not fulfilled"),
    ("O=C1[C@H]2[C@H]3[C@H](O)[C@H](O)CC(=NO[C@@H]4O[C@H](CO)[C@@H](O)[C@H](O)[C@H]4O)[C@H]3CC[C@H]2C(=O)N1c1cccc(Oc2ccccc2)c1", "Not fulfilled"),
    ("Cc1ccc(S(=O)(=O)OC[C@H]2CN3[C@H](c4ccc(Br)cc4)[C@@H](C)CC[C@H]3C(=O)O2)cc1", "Fulfilled"),
    ("COc1cccc([C@H]2Oc3ccc(OC)cc3C(=NOC[C@@H](O)COCc3ccco3)[C@@H]2O)c1", "Fulfilled"),
    ("C#CCCCON=C1C[C@@H](O)[C@@H](O)[C@@H]2[C@@H]3C(=O)N(Cc4ccccc4)C(=O)[C@@H]3CC[C@@H]12", "Fulfilled"),
    ("O=C(NN=C1C[C@@H](O)[C@@H](O)[C@@H]2[C@@H]3C(=O)N(Cc4ccccc4)C(=O)[C@@H]3CC[C@@H]12)OCc1ccccc1", "Fulfilled"),
    ("CCOC(=O)[C@H](CC(C)C)NC(=O)CCC1CC(OC(=O)NCCc2ccc(F)cc2)CC2(CCCC(COC(=O)NCCc3ccc(Cl)cc3)O2)O1 (some centres undefined)", "Not fulfilled"),
    ("COc1ccc(O[C@H]2C=C[C@@H](c3ccccc3)O[C@@H]2CON=C2[C@H]3CCn4c(=O)n(-c5ccccc5)c(=O)n4[C@H]3[C@H](O)[C@@H]3O[C@H]23)cc1", "Not fulfilled"),
    ("COCOc1ccc(Br)cc1C(=O)[C@@H]1O[C@H]1c1cccc(OC)c1", "Not fulfilled"),
    ("CCOC(=O)CCN1C(=O)[C@H]2[C@H]3[C@H](O)[C@H](O)CC(=NOCC(C)C)[C@H]3CC[C@H]2C1=O", "Fulfilled"),
    ("CO[C@H]1COC(=O)CC=C[C@H](C)[C@@H](OC)COC(=O)[C@@H](C)NC(=O)CC=C[C@@H]1C", "Not fulfilled"),
    ("CCOC(=O)NN=C1C[C@@H](O)[C@@H](O)[C@@H]2[C@@H]3C(=O)N(Cc4ccccc4)C(=O)[C@@H]3CC[C@H]12", "Not fulfilled"),
    ("COC(=O)[C@H](C)NC(=O)CCC1CC(OC(=O)NCc2ccc3c(c2)OCO3)CC2(CCCC(COC(=O)NCc3cccc(C(F)(F)F)c3)O2)O1 (some centres undefined)", "Not fulfilled"),
    ("CCCNC(=O)OC[C@H]1O[C@H](CCON=Cc2ccc(C(=O)N3[C@H](c4ccc(C)cc4)[C@@H](C)CC[C@H]3C(=O)OC)cc2)C=C[C@@H]1Oc1ccc(OC)cc1", "Not fulfilled"),
]

###

System: wheat germ agglutinin (Triticum aestivum), Alexa647-labelled
protocol-text: wheat germ agglutinin binders on compound microarrays, profiling panel, artefact control for SMM control-protein annotation, biochemical, small-molecule microarray, 635/667 nm fluorescence (AID 1140);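 further: score merges 667 nm feature emission with signal to noise over triplicate slides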
measurement-setup: WGA-A647 binding, 635 nm fluorescence, higher = more signal
Values of composite z-score greater than or equal to -0.03 map to 1; values below map to 0.

# compound, classification
measured = [
    ("C[C@@H]1CC[C@H]2C(=O)O[C@@H](COc3ccc(C(C)(C)C)cc3)CN2[C@@H]1c1ccc(Br)cc1", 0),
    ("CCOC(=O)[C@H](CC(C)C)NC(=O)CCC1CC(OC(=O)NCCc2ccc(F)cc2)CC2(CCCC(COC(=O)NCCc3ccc(Cl)cc3)O2)O1 (stereo partly drawn)", 1),
    ("C=CC1=C[C@H](O)[C@@H]2O[C@@H]2C12OCCCO2", 0),
    ("Cc1cc2c(nc1C)CCCCN2CC(C)ON=C[C@@H](C)[C@H](OCc1ccccc1)C(C)C (stereo partly drawn)", 0),
    ("CCCNC(=O)OC[C@H]1O[C@H](CCON=C(C)C)C=C[C@@H]1Oc1ccc(OC)cc1", 0),
    ("CO[C@H]1COC(=O)[C@@H]2CCCN2C(=O)CC=C[C@@H](C)[C@H](OC)COC(=O)[C@@H](OCc2ccccc2)C=C[C@@H]1C", 0),
    ("CC(C)=NOC[C@@H](C)[C@H](OCc1ccccc1)C(C)C", 0),
    ("CCOC(=O)[C@H](CC(C)C)NC(=O)CCC1CC(OC(=O)NCCc2ccc(F)cc2)CC2(CCCC(COC(=O)NCCc3ccccc3OC)O2)O1 (stereo partly drawn)", 1),
]
